- Tested on: P12-Ichikawa
- assay_summary: cell viability relative to DMSO control; higher = less cytotoxic
- conditions: HPLM + 10% dialyzed FBS; 48 h; 0.000781 µM
Hi there, I'd appreciate the recorded cell viability for every entry that follows.
Numbers only, in %.

# example entries with known answers
{"columns": ["compound", "cell viability, %"],
 "data": [
  ["COC1=CC=C(C=C1O)C/2=C/C(=O)C3=C(O2)C=C(O[C@@H]4O[C@H](CO[C@@H]5O[C@@H](C)[C@H](O)[C@@H](O)[C@H]5O)[C@@H](O)[C@H](O)[C@H]4O)C=C3O", 108],
  ["C#CCN[C@@H]1CCc2ccccc21.CS(=O)(=O)O", 105],
  ["CC/1=C(\\O)C(=O)\\C=C2/C1=C/C=C3\\[C@@]2(C)CC[C@@]4(C)[C@@H]5C[C@@](C)(CC[C@]5(C)CC[C@]34C)C(O)=O", 105],
  ["CO/N=C(/C(=O)N[C@@H]1C(=O)N2C(C(=O)O)=C(CSC(=O)c3ccco3)CS[C@H]12)c1csc(N)n1", 100],
  ["OC(CN1CCN(c2cccc(Cl)c2)CC1)C(c1ccccc1)c1ccccc1 (stereo not drawn)", 109]
]}

Here are 5 compounds. What values of cell viability were reported for them?
1. O=C1NC(=O)/C(=C/c2ccc(-c3ccc(F)cc3O)o2)S1
2. CCN1CCCC1CNC(=O)c1cc([S+](N)(=O)[O-])ccc1OC (stereo not drawn)
3. CCN1CCN(C(=O)Cc2ccc(Nc3ncc(F)c(Nc4ccc(C(=O)Nc5ccccc5Cl)cc4)n3)cc2)CC1
4. Cc1nc(Nc2n[nH]c3c2CN(C(=O)N[C@H](CN(C)C)c2ccccc2)C3(C)C)c2sccc2n1
5. C[C@@]1(C(=O)Nc2ccc(F)nc2)CCCN1c1nc(Nc2cc(C3CC3)[nH]n2)c2cccn2n1

**Result**
[113, 111, 107, 84.9, 103]

====

- Tested on: P12-Ichikawa
- assay_summary: cell viability relative to DMSO control; higher = less cytotoxic
- conditions: RPMI 5 mM glucose + 10% dialyzed FBS; 48 h; 0.19 µM
Hi there, I'd appreciate the recorded cell viability for every entry that follows.
Numbers only, in %.

{"columns": ["smiles_representation", "property", "unit", "recorded_number"],
 "data": [
  ["O=C1NC(=O)/C(=C/c2ccc(-c3ccc(F)cc3O)o2)S1", "cell viability", "%", 121],
  ["OC1=CC2=C(C(=C1)O)C(=O)\\C(=C(/O2)C3=CC(=C(O)C=C3)O)O", "cell viability", "%", 100],
  ["C[C@@]1(C(=O)Nc2ccc(F)nc2)CCCN1c1nc(Nc2cc(C3CC3)[nH]n2)c2cccn2n1", "cell viability", "%", 126],
  ["COc1cc(C(=O)NS(=O)(=O)c2ccccc2C)ccc1Cc1cn(C)c2ccc(NC(=O)OC3CCCC3)cc12", "cell viability", "%", 78.3]
]}

Field: next molecule
**Query** Which cell viability value belongs to c1ccc(-c2oc3ncnc(NC[C@@H]4CCCO4)c3c2-c2ccccc2)cc1 ?
**Result** 124

====

- Test system: P12-Ichikawa
- assay_summary: cell viability relative to DMSO control; higher = less cytotoxic
- conditions: RPMI 5 mM glucose + 10% dialyzed FBS; 48 h; 1.71 µM
property: cell viability (%)
Numbers only, in %.

# example entries with known answers
{"columns": ["molecule", "cell viability [%]"],
 "data": [
  ["CNC(=O)Nc1ccc(-c2nc(N3CC4CCC(C3)O4)c3cnn(C4CCC5(CC4)OCCO5)c3n2)cc1", 65.2],
  ["CC(C)Cc1ccc(C(C)C(=O)O)cc1 (centres undefined)", 81.7],
  ["CCOC(=O)/C=C/[C@H](C[C@@H]1CCNC1=O)NC(=O)[C@@H](CC(=O)[C@@H](NC(=O)c1cc(C)on1)C(C)C)Cc1ccc(F)cc1", 128],
  ["C1CCN2C[C@H]3C[C@H](\\C=C/4CCCN[C@@H]34)[C@H]2C1", 97.6],
  ["Cc1ncc([N+](=O)[O-])n1CC(C)O (centres undefined)", 113],
  ["COc1cc(CNC(=O)CCCC/C=C/C(C)C)ccc1O", 21.3],
  ["OCc1ccc(-c2ccc(-c3ccc(CO)s3)o2)s1", 95.4],
  ["CCN1CCN(C(=O)Cc2ccc(Nc3ncc(F)c(Nc4ccc(C(=O)Nc5ccccc5Cl)cc4)n3)cc2)CC1", 107]
]}

Field: next molecule
**Query** Which cell viability value belongs to Cc1onc(-c2ccccc2)c1C(=O)N[C@@H]1C(=O)N2[C@@H]1SC(C)(C)[C@@H]2C(=O)[O-].[Na+] ?
**Result** 89.6
